Answer each item with its documented target mRNA knockdown.
details: siRNA; also: test system not given here
HELM strings list units from the 5' end as sugar, base in round brackets, then linkage (d deoxyribose, r ribose, m 2'-O-methyl, p phosphodiester). Strings are as the collection lists them, not checked against the first reports. ss, as = sense and antisense strand; [fl2r] = 2'-fluoro
State the value with its unit after it.

substance	target mRNA knockdown
RNA1{r(A)p.r(U)p.r(C)p.r(G)p.r(A)p.r(C)p.r(C)p.r(U)p.r(G)p.r(A)p.r(A)p.r(G)p.r(G)p.r(A)p.r(G)p.[fl2r](U)p.r(A)p.r(C)p.r(G)p.r(T)p.r(T)}|RNA2{r(C)p.r(G)p.r(U)p.[fl2r](A)p.r(C)p.r(U)p.r(C)p.r(C)p.r(U)p.r(U)p.r(C)p.r(A)p.r(G)p.r(G)p.r(U)p.r(C)p.r(G)p.r(A)p.r(U)p.r(T)p.r(T)}$$$RNA1{StrandType:ss}|RNA2{StrandType:as}$	82%
RNA1{r(U)p.r(C)p.r(C)p.r(U)p.r(C)p.r(G)p.r(U)p.r(C)p.[fl2r](G)p.r(U)p.r(C)p.[fl2r](U)p.[fl2r](G)p.r(U)p.r(U)p.r(C)p.[fl2r](U)p.r(A)p.r(A)p.r(T)p.r(T)}|RNA2{r(U)p.[fl2r](U)p.r(A)p.r(G)p.r(A)p.r(A)p.[fl2r](C)p.r(A)p.r(G)p.r(A)p.r(C)p.r(G)p.r(A)p.r(C)p.r(G)p.r(A)p.r(G)p.r(G)p.r(A)p.r(T)p.r(T)}$$$RNA1{StrandType:ss}|RNA2{StrandType:as}$	77%

Lab note: next substance to report on.
Query: What does the data say about its target mRNA knockdown? Entry: RNA1{r(A)p.r(A)p.m(C)p.r(A)p.r(G)p.r(C)p.r(C)p.r(U)p.m(U)p.r(A)p.r(C)p.r(C)p.r(C)p.r(C)p.r(G)p.r(A)p.r(U)p.r(U)p.r(C)p.r(T)p.r(T)}|RNA2{r(G)p.r(A)p.r(A)p.r(U)p.r(C)p.r(G)p.r(G)p.r(G)p.r(G)p.m(U)p.r(A)p.r(A)p.r(G)p.r(G)p.r(C)p.m(U)p.r(G)p.r(U)p.r(U)p.r(T)p.r(T)}$$$RNA1{StrandType:ss}|RNA2{StrandType:as}$
Reply: 68%

###

details: siRNA
HELM strings list units from the 5' end as sugar, base in round brackets, then linkage (d deoxyribose, r ribose, m 2'-O-methyl, p phosphodiester). Strings are as the collection lists them, not checked against the first reports. ss, as = sense and antisense strand; [fl2r] = 2'-fluoro
Answer each item with its documented target mRNA knockdown.
Answers are plain numbers, in %.

substance	unit	test value
RNA1{r(A)p.r(A)p.m(C)p.m(C)p.m(C)p.r(A)p.r(A)p.r(A)p.r(G)p.r(G)p.r(G)p.r(G)p.r(A)p.r(G)p.r(U)p.r(U)p.r(G)p.m(C)p.r(U)p.r(T)p.r(T)}|RNA2{m(A)p.r(G)p.m(C)p.r(A)p.m(A)p.r(C)p.m(U)p.r(C)p.m(C)p.r(C)p.m(C)p.r(U)p.m(U)p.r(U)p.m(G)p.r(G)p.m(G)p.r(U)p.m(U)p.r(T)p.r(T)}$$$RNA1{StrandType:ss}|RNA2{StrandType:as}$	%	37
RNA1{r(G)p.r(C)p.r(U)p.r(G)p.r(A)p.r(A)p.r(C)p.[fl2r](U)p.r(A)p.r(G)p.r(U)p.r(C)p.r(G)p.r(A)p.r(A)p.r(A)p.r(G)p.r(A)p.r(A)p.r(T)p.r(T)}|RNA2{r(U)p.r(U)p.r(C)p.r(U)p.r(U)p.r(U)p.r(C)p.r(G)p.r(A)p.r(C)p.[fl2r](U)p.r(A)p.r(G)p.r(U)p.r(U)p.r(C)p.r(A)p.r(G)p.r(C)p.r(T)p.r(T)}$$$RNA1{StrandType:ss}|RNA2{StrandType:as}$	%	79

For each of the substances below, note its target mRNA knockdown.
1. RNA1{r(A)p.r(G)p.r(U)p.r(C)p.r(C)p.r(C)p.r(U)p.r(G)p.r(G)p.r(A)p.r(G)p.r(C)p.r(C)p.r(U)p.m(U)p.m(A)p.r(A)p.r(A)p.r(C)p.r(T)p.r(T)}|RNA2{r(G)p.r(U)p.r(U)p.r(U)p.m(A)p.r(A)p.r(G)p.r(G)p.r(C)p.r(U)p.r(C)p.r(C)p.r(A)p.r(G)p.r(G)p.r(G)p.r(A)p.r(C)p.r(U)p.r(T)p.r(T)}$$$RNA1{StrandType:ss}|RNA2{StrandType:as}$
2. RNA1{m(A)p.m(A)p.r(U)p.m(A)p.m(A)p.m(G)p.r(C)p.m(A)p.m(G)p.r(C)p.r(U)p.r(C)p.m(G)p.r(C)p.m(G)p.r(C)p.r(U)p.r(C)p.r(C)p.r(T)p.r(T)}|RNA2{r(G)p.r(G)p.r(A)p.r(G)p.r(C)p.r(G)p.r(C)p.r(G)p.r(A)p.r(G)p.r(C)p.r(U)p.r(G)p.r(C)p.r(U)p.r(U)p.r(A)p.r(U)p.r(U)p.r(T)p.r(T)}$$$RNA1{StrandType:ss}|RNA2{StrandType:as}$
3. RNA1{m(C)p.r(G)p.m(G)p.r(A)p.m(U)p.r(C)p.m(U)p.r(A)p.m(C)p.r(A)p.m(C)p.r(C)p.m(U)p.r(U)p.m(C)p.r(A)p.m(A)p.r(G)p.m(A)p.r(T)p.r(T)}|RNA2{r(U)p.r(C)p.r(U)p.r(U)p.r(G)p.r(A)p.r(A)p.r(G)p.r(G)p.r(U)p.r(G)p.r(U)p.m(A)p.r(G)p.m(A)p.r(U)p.m(C)p.r(C)p.m(G)p.r(T)p.r(T)}$$$RNA1{StrandType:ss}|RNA2{StrandType:as}$

Reply:
1. 62
2. 64
3. 46

###

details: siRNA
HELM strings list units from the 5' end as sugar, base in round brackets, then linkage (d deoxyribose, r ribose, m 2'-O-methyl, p phosphodiester). Strings are as the collection lists them, not checked against the first reports. ss, as = sense and antisense strand; [s4r] = 4'-thioribose; [fl2r] = 2'-fluoro
Answer each item with its documented target mRNA knockdown.
Give bare numbers, in %.

substance	endpoint	test value
RNA1{m(G)p.r(U)p.m(A)p.r(U)p.m(C)p.r(C)p.m(G)p.r(A)p.m(A)p.r(G)p.m(A)p.r(C)p.m(G)p.r(A)p.m(A)p.r(G)p.m(C)p.r(U)p.m(A)p.r(T)p.r(T)}|RNA2{r(U)p.m(A)p.r(G)p.r(C)p.r(U)p.r(U)p.r(C)p.r(G)p.r(U)p.r(C)p.r(U)p.r(U)p.r(C)p.r(G)p.r(G)p.m(A)p.r(U)p.m(A)p.r(C)p.r(T)p.r(T)}$$$RNA1{StrandType:ss}|RNA2{StrandType:as}$	target mRNA knockdown	30
RNA1{r(A)p.r(C)p.r(C)p.r(U)p.r(U)p.r(U)p.r(C)p.m(C)p.r(A)p.r(C)p.r(U)p.r(U)p.r(C)p.m(U)p.r(A)p.r(A)p.r(G)p.r(C)p.r(C)p.r(T)p.r(T)}|RNA2{r(G)p.r(G)p.r(C)p.r(U)p.m(U)p.r(A)p.r(G)p.r(A)p.r(A)p.r(G)p.m(U)p.r(G)p.r(G)p.r(A)p.r(A)p.r(A)p.r(G)p.r(G)p.r(U)p.r(T)p.r(T)}$$$RNA1{StrandType:ss}|RNA2{StrandType:as}$	target mRNA knockdown	75
RNA1{[s4r](A)p.[s4r](A)p.[s4r](A)p.[s4r](C)p.r(A)p.r(U)p.r(G)p.r(C)p.r(A)p.r(G)p.r(A)p.r(A)p.r(A)p.r(A)p.r(U)p.r(G)p.r(C)p.r(U)p.r(G)p.r(T)p.r(T)}|RNA2{r(C)p.r(A)p.r(G)p.r(C)p.r(A)p.r(U)p.r(U)p.r(U)p.r(U)p.r(C)p.r(U)p.r(G)p.r(C)p.r(A)p.r(U)p.r(G)p.r(U)p.r(U)p.r(U)p.r(T)p.r(T)}$$$RNA1{StrandType:ss}|RNA2{StrandType:as}$	target mRNA knockdown	70.4
RNA1{r(C)p.r(C)p.r(C)p.r(C)p.r(A)p.r(G)p.r(G)p.m(U)p.r(A)p.r(A)p.r(C)p.r(G)p.r(A)p.r(U)p.r(U)p.r(U)p.r(U)p.r(C)p.r(U)p.r(T)p.r(T)}|RNA2{r(A)p.r(G)p.r(A)p.r(A)p.r(A)p.r(A)p.r(U)p.r(C)p.r(G)p.r(U)p.m(U)p.r(A)p.r(C)p.r(C)p.r(U)p.r(G)p.r(G)p.r(G)p.r(G)p.r(T)p.r(T)}$$$RNA1{StrandType:ss}|RNA2{StrandType:as}$	target mRNA knockdown	70

Lab note: next substance to report on.
Query: What does the data say about its target mRNA knockdown? Entry: RNA1{r(A)p.r(G)p.[fl2r](U)p.r(A)p.r(A)p.[fl2r](U)p.[fl2r](C)p.[fl2r](C)p.r(G)p.r(G)p.r(A)p.[fl2r](C)p.[fl2r](U)p.[fl2r](C)p.r(A)p.r(A)p.[fl2r](C)p.[fl2r](U)p.[fl2r](C)p.r(T)p.r(T)}|RNA2{r(G)p.r(A)p.r(G)p.r(U)p.r(U)p.r(G)p.r(A)p.r(G)p.r(U)p.r(C)p.r(C)p.r(G)p.r(G)p.r(A)p.r(U)p.r(U)p.r(A)p.r(C)p.r(U)p.r(T)p.r(T)}$$$RNA1{StrandType:ss}|RNA2{StrandType:as}$
Reply: 59
